- TESTED_SYSTEM: ScBbc1
- PROTOCOL_DETAILS: SPOT peptide array binding signal intensity (averaged, normalized) (arbitrary units (background-subtracted, floor 0; scale differs between SH3 domains)); higher = stronger binding of the SH3 domain to the peptide
MEASUREMENT_LABEL: SPOT peptide array binding signal intensity
Simply state the number, no unit and no words.

// worked examples, SPOT peptide array binding signal intensity included
| BINDER | VALUE |
| --- | --- |
| PAPPPPPRASRPTPN | 72.5 |
| FLIKFTPKFPQSIDH | 5.5 |
| AATTSTPPLPRRRAT | 726 |
| MKRSRPSRSIPYTTP | 18.8 |
| LRWRHKFFLPAIAAI | 0.875 |

Note down SPOT peptide array binding signal intensity recorded for KRKRRLPVSEDTNTK 30
